- System: CD2F1 mice, L1210 leukemia ip, survival T/C
- test_description: NCI In Vivo Anticancer Drug Screen. Data for tumor model L1210 Leukemia (intraperitoneal) in CD2F1 (CDF1) mice
- condition_info: endpoint: mean survival time; dose: 6.25 mg/kg/injection; schedule: Q01DX009 (ip); vehicle: saline with Tween-80; higher = longer survival
Inconclusive results and toxic doses are left out.
Parameter T/C: see the listing below.
property_name: T/C

{"compound": "CCCCCCCCCCCCNC1=CC(=O)c2nccnc2C1=O", "tgt": "CD2F1 mice, L1210 leukemia ip, survival T/C", "result": "98 % of control"}
{"compound": "CCCCCCCCCCCCCCCC[n+]1cccc(C(=O)NCO)c1", "tgt": "CD2F1 mice, L1210 leukemia ip, survival T/C", "result": "102 % of control"}
{"compound": "ClC1CCC[N-]C1.ClC1CCC[N-]C1.[Cl][Pt+2]([Cl])([Cl])[Cl] (configuration not stated)", "tgt": "CD2F1 mice, L1210 leukemia ip, survival T/C", "result": "112 % of control"}
{"compound": "O=C1NC(=O)c2cc(C(F)(F)F)ccc21", "tgt": "CD2F1 mice, L1210 leukemia ip, survival T/C", "result": "95 % of control"}
{"compound": "CC1([CH2][Hg][Cl])Cc2ccccc2O1 (configuration not stated)", "tgt": "CD2F1 mice, L1210 leukemia ip, survival T/C", "result": "101 % of control"}
{"compound": "BrC1c2cccc3cccc(c23)C1Br (configuration not stated)", "tgt": "CD2F1 mice, L1210 leukemia ip, survival T/C", "result": "115 % of control"}
{"compound": "Cc1nn(CCO)c(C)c1N=[N+]([O-])c1c(C)nn(CCO)c1C", "tgt": "CD2F1 mice, L1210 leukemia ip, survival T/C", "result": "103 % of control"}
